# Waterhemp plant response rating values compiled below
tested on: waterhemp (common waterhemp, Amaranthus rudis); test: Test C greenhouse herbicide test, pre- and postemergence; format: in vivo; conditions: Postemergence, 62 g ai/ha; 0 to 100 scale (0 no effect, 100 complete control)
Lab note: write the figure by itself, no unit.

Answered cases to consult:
{"columns": ["molecule", "data-value"],
 "data": [
  ["Cc1nn(C)c(=O)c(-c2cccc3ccc(C#N)cc23)c1O", 85],
  ["COC(=O)Oc1c(C)nn(C)c(=O)c1-c1c([N+](=O)[O-])ccc2ccccc12", 65],
  ["COC(=O)Oc1c(Br)nn(C)c(=O)c1-c1c(C)ccc2ccccc12", 65]
]}

Please find the next compound below.
Waterhemp plant response rating in this record for CC(=O)Oc1c(C)nn(C)c(=O)c1-c1c([N+](=O)[O-])ccc2ccccc12 : 70

----------
test system: galium (catchweed bedstraw, Galium aparine); test: Test C greenhouse herbicide test, pre- and postemergence; format: in vivo; conditions: postemergence, 125 g ai/ha; scale 0 to 100, 0 no effect, 100 complete control
# Galium plant response rating values compiled below
Lab note: write the figure by itself, no unit.

Answered cases to consult:
{"columns": ["molecule", "tested-on", "data-value"],
 "data": [
  ["COc1nn(C)c(=O)c(-c2c(C)ccc3ccccc23)c1OC(C)=O", "galium (catchweed bedstraw, Galium aparine)", 95],
  ["Cc1ccc2ccccc2c1-c1c(OC(=O)N2CCOCC2)c(Br)nn(C)c1=O", "galium (catchweed bedstraw, Galium aparine)", 60],
  ["COC(=O)Oc1cnn(C)c(=O)c1-c1c(C)ccc2ccccc12", "galium (catchweed bedstraw, Galium aparine)", 90],
  ["COC(=O)Oc1c(Br)nn(C)c(=O)c1-c1c(C)ccc2ccccc12", "galium (catchweed bedstraw, Galium aparine)", 90]
]}

Please find the next molecule below.
Galium plant response rating in this record for CC(=O)Oc1c(C)nn(C)c(=O)c1-c1c(C)cc(C)c2ccccc12 : 98

----------
tested on: waterhemp (common waterhemp, Amaranthus rudis); test: Test C greenhouse herbicide test, pre- and postemergence; format: in vivo; conditions: Postemergence, 31 g ai/ha; scale 0 to 100 (0 no effect, 100 complete control)
Plant response rating, Waterhemp vs 80: less than gives fulfilled; not less than gives not fulfilled.

Solved cases below.
{"columns": ["molecule", "category-label"],
 "data": [
  ["Cc1nn(C)c(=O)c(-c2cccc3ccc(C#N)cc23)c1O", "fulfilled"],
  ["Cc1ccc2ccccc2c1-c1c(O)c(Cl)nn(C)c1=O", "not fulfilled"],
  ["COC(=O)Oc1c(Br)nn(C)c(=O)c1-c1c(C)ccc2ccccc12", "not fulfilled"],
  ["Cc1ccc2ccccc2c1-c1c(OC(=O)N2CCOCC2)c(Br)nn(C)c1=O", "fulfilled"]
]}

As a next step, examine the molecule that follows.
*Q* Is it true that Plant response rating, Waterhemp reported for CC(=O)Oc1c(C)nn(C)c(=O)c1-c1c([N+](=O)[O-])ccc2ccccc12 is less than 80?
*A* fulfilled

----------
# Johnsongrass plant response rating values compiled below
system: johnsongrass (Sorghum halepense); test: Test C greenhouse herbicide test, pre- and postemergence; type: in vivo; settings: postemergence, 125 g ai/ha; scale 0 to 100, 0 no effect, 100 complete control
Lab note: write the figure by itself, no unit.

Answered cases to consult:
{"columns": ["molecule", "Johnsongrass plant response rating"],
 "data": [
  ["COC(=O)Oc1c(Br)nn(C)c(=O)c1-c1c(C)ccc2ccccc12", 15],
  ["CCC(=O)Oc1c(C)nn(C)c(=O)c1-c1ccc(Br)c2ccccc12", 20],
  ["Cc1cc(C)c2ccccc2c1-c1c(OS(C)(=O)=O)c(C)nn(C)c1=O", 20]
]}

Johnsongrass plant response rating in this record for COc1nn(C)c(=O)c(-c2c(C)ccc3ccccc23)c1OC(C)=O : 20

----------
test system: wild poinsettia (Euphorbia heterophylla); test: Test E greenhouse herbicide test, pre- and postemergence; type: in vivo; conditions: 125 g ai/ha, Postemergence; scale 0 to 100 (0 no effect, 100 complete control)
reported-property: Plant response rating, Poinsettia, Wild
Lab note: write the figure by itself, no unit.

Answered cases to consult:
{"columns": ["compound", "reported-property", "data-value"],
 "data": [
  ["COC(=O)Oc1c(C)nn(C)c(=O)c1-c1c(C)sc2c(C)cc(C)cc12 [Compound 81]", "Plant response rating, Poinsettia, Wild", 40],
  ["CCC(=O)Oc1c(C)nn(C)c(=O)c1-c1c(C)sc2c(C)cc(C)cc12 [Compound 28]", "Plant response rating, Poinsettia, Wild", 50],
  ["CC(=O)Oc1c(C)nn(C)c(=O)c1-c1c(C)cc(C)c2ccccc12 [Compound 153]", "Plant response rating, Poinsettia, Wild", 50]
]}

Please find the next compound below.
Plant response rating, Poinsettia, Wild in this record for CCOC(=O)Oc1c(C)nn(C)c(=O)c1-c1c(C)sc2ccc(C)cc12 [Compound 82] : 40

----------
# Plant response rating, Field Poppy values compiled below
tested on: field poppy (Papaver rhoeas); test: Test D controlled growth environment herbicide test, pre- and postemergence; assay type: in vivo; conditions: postemergence, 62 g ai/ha; scale 0 to 100, 0 no effect, 100 complete control
Lab note: write the figure by itself, no unit.

{"columns": ["compound", "Plant response rating, Field Poppy"],
 "data": [
  ["CCOC(=O)Oc1c(C)nn(C)c(=O)c1-c1c(C)sc2ccc(C)cc12 [Compound 82]", 85],
  ["Cc1ccc2ccc(C)c(-c3c(O)c(C)nn(C)c3=O)c2c1 [Compound 60]", 75],
  ["COC(=O)Oc1c(C)nn(C)c(=O)c1-c1c(C)sc2c(C)cc(C)cc12 [Compound 81]", 100],
  ["CC(=O)Oc1c(C)nn(C)c(=O)c1-c1c(C)sc2ccc(C)cc12 [Compound 25]", 80]
]}

Plant response rating, Field Poppy in this record for C#CCOC(=O)Oc1c(C)nn(C)c(=O)c1-c1c(C)sc2ccc(C)cc12 [Compound 87] : 85

Plant response rating, Field Poppy in this record for Cc1cc(C)c2sc(C)c(-c3c(OC(=O)OCCCl)c(C)nn(C)c3=O)c2c1 [Compound 85] : 90

Plant response rating, Field Poppy in this record for CCC(=O)Oc1c(C)nn(C)c(=O)c1-c1c(C)sc2c(C)cc(C)cc12 [Compound 28] : 90

Plant response rating, Field Poppy in this record for CCOC(=O)Oc1c(C)nn(C)c(=O)c1-c1c(C)sc2c(C)cc(C)cc12 [Compound 83] : 100

----------
system: radish, wild (wild radish, Raphanus raphanistrum); test: Test D controlled growth environment herbicide test, pre- and postemergence; format: in vivo; settings: Postemergence, 125 g ai/ha; visual rating on scale 0 (no effect) to 100 (complete control), 14 to 21 d
Excerpt: […]
# Plant response rating, Radish, Wild values compiled below

Answered cases to consult:
{"columns": ["molecule", "Plant response rating, Radish, Wild"],
 "data": [
  ["COc1nn(C)c(=O)c(-c2c(C)ccc3ccccc23)c1O", 100],
  ["CC(=O)Oc1c(Br)nn(C)c(=O)c1-c1c(C)ccc2ccccc12", 80],
  ["COC(=O)Oc1c(C)nn(C)c(=O)c1-c1c(C)sc2c(C)cc(C)cc12", 95]
]}

I looked up CCC(=O)Oc1c(C)nn(C)c(=O)c1-c1c(C)sc2c(C)cc(C)cc12 and its Plant response rating, Radish, Wild for radish, wild (wild radish, Raphanus raphanistrum) was 85

I looked up C#CCOC(=O)Oc1c(C)nn(C)c(=O)c1-c1c(C)sc2ccc(C)cc12 and its Plant response rating, Radish, Wild for radish, wild (wild radish, Raphanus raphanistrum) was 30

I looked up COc1nn(C)c(=O)c(-c2c(C)ccc3ccccc23)c1OC(=O)OC(C)C and its Plant response rating, Radish, Wild for radish, wild (wild radish, Raphanus raphanistrum) was 100

----------
# Plant response rating, Johnsongrass values compiled below
test system: johnsongrass (Sorghum halepense); experiment: Test C greenhouse herbicide test, pre- and postemergence; assay type: in vivo; conditions: Preemergence, 62 g ai/ha; scale 0 to 100, 0 is no effect, 100 is complete control
Lab note: write the figure by itself, no unit.

Answered cases to consult:
{"columns": ["molecule", "data-value"],
 "data": [
  ["CCCC(=O)Oc1c(C)nn(C)c(=O)c1-c1c(C)sc2c(C)cc(C)cc12", 5],
  ["COc1nn(C)c(=O)c(-c2c(C)ccc3ccccc23)c1OC(=O)OC(C)C", 5],
  ["CC(=O)Oc1c(C)nn(C)c(=O)c1-c1c(C)cc(C)c2ccccc12", 50],
  ["COC(=O)Oc1c(C)nn(C)c(=O)c1-c1c(C)sc2c(C)cc(C)cc12", 5],
  ["CC(=O)Oc1c(C)nn(C)c(=O)c1-c1c(C)sc2c(C)cc(C)cc12", 5],
  ["CCC(=O)Oc1c(C)nn(C)c(=O)c1-c1c(C)sc2ccc(Cl)cc12", 30],
  ["CCC(=O)Oc1c(C)nn(C)c(=O)c1-c1ccc(Br)c2ccccc12", 35],
  ["Cc1cc(C)c2ccccc2c1-c1c(OS(C)(=O)=O)c(C)nn(C)c1=O", 45]
]}

Plant response rating, Johnsongrass in this record for CCOC(=O)Oc1c(C)nn(C)c(=O)c1-c1c(C)ccc2ccccc12 : 10

Plant response rating, Johnsongrass in this record for CSCC(=O)Oc1c(C)nn(C)c(=O)c1-c1cccc2ccccc12 : 5

Plant response rating, Johnsongrass in this record for Cc1ccc2ccccc2c1-c1c(O)c(C)nn(C)c1=O : 25

Plant response rating, Johnsongrass in this record for CC(=O)Oc1c(Br)nn(C)c(=O)c1-c1c(C)ccc2ccccc12 : 5
